biological target: Human Factor B (human) (UniProt P00751); test: cell-based or functional assay
Sequence (P00751 26-764 limits assumed): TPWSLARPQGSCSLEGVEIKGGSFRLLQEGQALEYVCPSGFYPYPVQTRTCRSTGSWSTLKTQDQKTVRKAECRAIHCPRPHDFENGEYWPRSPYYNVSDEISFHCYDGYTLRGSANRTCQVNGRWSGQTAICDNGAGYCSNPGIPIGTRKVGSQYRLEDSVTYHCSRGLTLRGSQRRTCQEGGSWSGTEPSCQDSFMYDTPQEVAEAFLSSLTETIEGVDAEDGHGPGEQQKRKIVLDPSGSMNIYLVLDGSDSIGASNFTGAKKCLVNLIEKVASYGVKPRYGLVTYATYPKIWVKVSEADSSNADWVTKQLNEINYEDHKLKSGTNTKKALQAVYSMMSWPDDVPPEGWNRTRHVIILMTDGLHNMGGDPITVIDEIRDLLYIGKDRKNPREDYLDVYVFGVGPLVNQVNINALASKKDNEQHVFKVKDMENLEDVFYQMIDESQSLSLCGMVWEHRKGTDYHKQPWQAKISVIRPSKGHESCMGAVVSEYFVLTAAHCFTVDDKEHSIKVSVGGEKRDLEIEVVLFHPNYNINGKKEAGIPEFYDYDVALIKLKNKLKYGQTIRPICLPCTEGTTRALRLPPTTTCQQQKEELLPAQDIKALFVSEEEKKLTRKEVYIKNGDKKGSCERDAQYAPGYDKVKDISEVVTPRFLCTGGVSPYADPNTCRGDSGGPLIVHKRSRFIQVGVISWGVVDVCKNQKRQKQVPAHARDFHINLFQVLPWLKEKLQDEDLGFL
readout_label: fB Cleavage EC50 (nM)
Form entry: value (nM) — number only.

The reported fB Cleavage EC50 of the binder chymase C22S/P38Q/K40A/F41R/L99H/F173Y/D175Y/V213Q/S218V/A226R/F228A (enzyme) IIGGTESKPHSRPYMAYLEIVTSNGQSARCGGFLIRRNFVLTAAHCAGRSITVTLGAHNITEEEDTWQKLEVIKQFRHPKYNTSTHHHDIMLLKLKEKASLTLAVGTLPFPSQFNFVPPGRMCRVAGWGRTGVLKPGSDTLQEVKLRLMDPQACSHYRYFDHNLQLCVGNPRKTKSAFKGDSGGPLLCAGVAQGIQSYGRVDAKPPRVATRISHYRPWINQILQAN was 769

For record chymase C22S/K40L/F41K/L99N/F173Y/D175N/A226R (enzyme) IIGGTESKPHSRPYMAYLEIVTSNGPSLKCGGFLIRRNFVLTAAHCAGRSITVTLGAHNITEEEDTWQKLEVIKQFRHPKYNTSTNHHDIMLLKLKEKASLTLAVGTLPFPSQFNFVPPGRMCRVAGWGRTGVLKPGSDTLQEVKLRLMDPQACSHYRNFDHNLQLCVGNPRKTKSAFKGDSGGPLLCAGVAQGIVSYGRSDAKPPRVFTRISHYRPWINQILQAN the listed fB Cleavage EC50 is 151

fB Cleavage EC50 measured on chymase C22S/L99F/F173K/K192R/R217S/S218I/A226R (enzyme) IIGGTESKPHSRPYMAYLEIVTSNGPSKFCGGFLIRRNFVLTAAHCAGRSITVTLGAHNITEEEDTWQKLEVIKQFRHPKYNTSTFHHDIMLLKLKEKASLTLAVGTLPFPSQFNFVPPGRMCRVAGWGRTGVLKPGSDTLQEVKLRLMDPQACSHKRDFDHNLQLCVGNPRKTKSAFRGDSGGPLLCAGVAQGIVSYGSIDAKPPRVFTRISHYRPWINQILQAN = 4000

Memo: chymase C22S/F41V/L99H/G151T/F173Y/Y215K/A226R (enzyme) IIGGTESKPHSRPYMAYLEIVTSNGPSKVCGGFLIRRNFVLTAAHCAGRSITVTLGAHNITEEEDTWQKLEVIKQFRHPKYNTSTHHHDIMLLKLKEKASLTLAVGTLPFPSQFNFVPPGRMCRVAGWGRTGVLKPTSDTLQEVKLRLMDPQACSHYRDFDHNLQLCVGNPRKTKSAFKGDSGGPLLCAGVAQGIVSKGRSDAKPPRVFTRISHYRPWINQILQAN , reported fB Cleavage EC50: 5330

# fB Cleavage EC50 of chymase C22S/P38Q/K40L/F41R/V138I/F173Y/D175N/A190S/V213A/S218V/A226R (enzyme) IIGGTESKPHSRPYMAYLEIVTSNGQSLRCGGFLIRRNFVLTAAHCAGRSITVTLGAHNITEEEDTWQKLEVIKQFRHPKYNTSTLHHDIMLLKLKEKASLTLAVGTLPFPSQFNFVPPGRMCRIAGWGRTGVLKPGSDTLQEVKLRLMDPQACSHYRNFDHNLQLCVGNPRKTKSSFKGDSGGPLLCAGVAQGIASYGRVDAKPPRVFTRISHYRPWINQILQAN = 36.3

Field fB Cleavage EC50 (entry chymase C22S/F41R/L99H/G151T/F173Y/Y215K/A226R (enzyme) IIGGTESKPHSRPYMAYLEIVTSNGPSKRCGGFLIRRNFVLTAAHCAGRSITVTLGAHNITEEEDTWQKLEVIKQFRHPKYNTSTHHHDIMLLKLKEKASLTLAVGTLPFPSQFNFVPPGRMCRVAGWGRTGVLKPTSDTLQEVKLRLMDPQACSHYRDFDHNLQLCVGNPRKTKSAFKGDSGGPLLCAGVAQGIVSKGRSDAKPPRVFTRISHYRPWINQILQAN ) reads 3220

Quick note, fB Cleavage EC50 for chymase C22S/P38Q/K40M/F41R/L99Y/V138I/F173L/D175S/A190S/V213A/S218T/A226R (enzyme) IIGGTESKPHSRPYMAYLEIVTSNGQSMRCGGFLIRRNFVLTAAHCAGRSITVTLGAHNITEEEDTWQKLEVIKQFRHPKYNTSTYHHDIMLLKLKEKASLTLAVGTLPFPSQFNFVPPGRMCRIAGWGRTGVLKPGSDTLQEVKLRLMDPQACSHLRSFDHNLQLCVGNPRKTKSSFKGDSGGPLLCAGVAQGIASYGRTDAKPPRVFTRISHYRPWINQILQAN landed at 1230

Lab book: fB Cleavage EC50 of chymase C22S/P38Q/K40A/F41R/L99H/D175N/V213Q/S218I/A226R/F228A (enzyme) IIGGTESKPHSRPYMAYLEIVTSNGQSARCGGFLIRRNFVLTAAHCAGRSITVTLGAHNITEEEDTWQKLEVIKQFRHPKYNTSTHHHDIMLLKLKEKASLTLAVGTLPFPSQFNFVPPGRMCRVAGWGRTGVLKPGSDTLQEVKLRLMDPQACSHFRNFDHNLQLCVGNPRKTKSAFKGDSGGPLLCAGVAQGIQSYGRIDAKPPRVATRISHYRPWINQILQAN noted as 553

In plain terms, chymase C22S/F173L/Y215H/A226R (enzyme) IIGGTESKPHSRPYMAYLEIVTSNGPSKFCGGFLIRRNFVLTAAHCAGRSITVTLGAHNITEEEDTWQKLEVIKQFRHPKYNTSTLHHDIMLLKLKEKASLTLAVGTLPFPSQFNFVPPGRMCRVAGWGRTGVLKPGSDTLQEVKLRLMDPQACSHLRDFDHNLQLCVGNPRKTKSAFKGDSGGPLLCAGVAQGIVSHGRSDAKPPRVFTRISHYRPWINQILQAN has a documented fB Cleavage EC50 of 5990

Entry chymase C22S/K40M/F41V/K192R/A226R (enzyme) IIGGTESKPHSRPYMAYLEIVTSNGPSMVCGGFLIRRNFVLTAAHCAGRSITVTLGAHNITEEEDTWQKLEVIKQFRHPKYNTSTLHHDIMLLKLKEKASLTLAVGTLPFPSQFNFVPPGRMCRVAGWGRTGVLKPGSDTLQEVKLRLMDPQACSHFRDFDHNLQLCVGNPRKTKSAFRGDSGGPLLCAGVAQGIVSYGRSDAKPPRVFTRISHYRPWINQILQAN — recorded fB Cleavage EC50 = 7770
